test system: RAW-Dual (murine macrophage reporter line); test: NF-kB reporter (SEAP) activity fold change vs agonist alone; higher = enhanced NF-kB activity; details: modulator concentration 10 µM; agonist: MPLA […]
observable: NF-kB reporter
Give bare numbers.

The examples below pair each entry with its known result.
> print(dat)
                               query.smiles                     target.or.test.system      observable  observed.result
1  CC(C)(C)c1ccc(C(=O)CCCN2CCC(OC(c3ccccc3)c3ccccc3)CC2)cc1  RAW-Dual (murine macrophage reporter line)  NF-kB reporter             1.02
2  OC1(c2ccc(Cl)c(C(F)(F)F)c2)CCN(CCCC(c2ccc(F)cc2)c2ccc(F)cc2)CC1  RAW-Dual (murine macrophage reporter line)  NF-kB reporter            0.103
3         CSc1nc(C(C)(C)C)cc(C(F)(F)F)c1C#N  RAW-Dual (murine macrophage reporter line)  NF-kB reporter             1.12

Quick one: give me NF-kB reporter for each item below, same order please.
1. Cc1cc(OCC(=O)NN=Cc2ccc(O)c([N+](=O)[O-])c2)ccc1Cl
2. CN(C(=O)c1cncc(F)c1)C1CN(c2ccc3nnc(C4CC4)n3n2)C1

Result:
1. 1.02
2. 0.83

Where these numbers come from: the supplement of paper PMC10646978
